- ASSAY SUMMARY: Human HepG2 cell viability assay in 384 well format
- Assay type: toxicity, cell-based
- Parameters: dose 125 nL, time 70.5 hour; concentration not given beside the values
- CONDITIONS: HepG2 cells, read-out: Inhibition
The following compounds are shown together with reported cytotoxicity at 70.5 h values.

[
  {
    "COMPOUND": "Cc1ccc(OCC(C)NS(C)(=O)=O)cc1C (configuration not stated)",
    "UNIT SYMBOL": "%",
    "cytotoxicity at 70.5 h": -3.53
  },
  {
    "COMPOUND": "CCc1oc(C(=O)N2CCCC(c3nnn[nH]3)C2)cc1C (configuration not stated)",
    "UNIT SYMBOL": "%",
    "cytotoxicity at 70.5 h": -4.85
  },
  {
    "COMPOUND": "Cn1ccnc1CN1CCC2(CC(=O)N(c3cccc(F)c3)C2)C1 (configuration not stated)",
    "UNIT SYMBOL": "%",
    "cytotoxicity at 70.5 h": -4.42
  },
  {
    "COMPOUND": "CC(NC(=O)C1CC1)c1cc(O)nc(-c2cccnc2)n1 (configuration not stated)",
    "UNIT SYMBOL": "%",
    "cytotoxicity at 70.5 h": 26.9
  },
  {
    "COMPOUND": "CCc1ccccc1NC(=O)c1cnn(C)c1C",
    "UNIT SYMBOL": "%",
    "cytotoxicity at 70.5 h": -7.12
  },
  {
    "COMPOUND": "CCOCC1CN(Cc2ccc(OC)cc2)Cc2nn(CC3CC3)cc21 (configuration not stated)",
    "UNIT SYMBOL": "%",
    "cytotoxicity at 70.5 h": -5.83
  },
  {
    "COMPOUND": "Cc1c(Cn2cc(Cl)c(N)n2)cnn1C",
    "UNIT SYMBOL": "%",
    "cytotoxicity at 70.5 h": -13.5
  }
]

====

- ASSAY SUMMARY: Human HepG2 cell viability assay in 384 well format
- Assay type: toxicity, cell-based
- Parameters: dose 125 nL, time 70.5 hour; concentration not given beside the values
- CONDITIONS: HepG2 cells, read-out: Inhibition
PROPERTY NAME: cytotoxicity at 70.5 h (%)

[
  {
    "COMPOUND": "CCn1cc(C(=O)Nc2ccccc2C(=O)OC)cn1",
    "UNIT SYMBOL": "%",
    "TEST RESULT": 13.1
  },
  {
    "COMPOUND": "Cc1ccc(C)c(C(=O)CN2C(=O)c3ccccc3CS2(=O)=O)c1",
    "UNIT SYMBOL": "%",
    "TEST RESULT": -15
  },
  {
    "COMPOUND": "COc1cc(/C=C/c2ncc(C(=O)O)s2)cc(Cl)c1OC",
    "UNIT SYMBOL": "%",
    "TEST RESULT": 18.2
  },
  {
    "COMPOUND": "CCCNC(=O)CCC(=O)Nc1cc2sc(C)nc2cc1OC",
    "UNIT SYMBOL": "%",
    "TEST RESULT": 0.815
  },
  {
    "COMPOUND": "Cc1cnn(C2CCCN(C(=O)c3cc4nc(C)ccc4o3)C2)c1 (centres undefined)",
    "UNIT SYMBOL": "%",
    "TEST RESULT": -5.06
  },
  {
    "COMPOUND": "O=C(c1ccc2c(c1)OCO2)N1CCC[C@]2(C[C@H](OCC3CC3)CO2)C1",
    "UNIT SYMBOL": "%",
    "TEST RESULT": -9.71
  },
  {
    "COMPOUND": "CN(Cc1ccncc1)c1cncc(Br)c1",
    "UNIT SYMBOL": "%",
    "TEST RESULT": -14.6
  },
  {
    "COMPOUND": "Cc1nn(-c2ncccn2)c2c1C(c1cnn(C)c1)SCC(=O)N2 (centres undefined)",
    "UNIT SYMBOL": "%",
    "TEST RESULT": -24.2
  },
  {
    "COMPOUND": "COC(=O)NCC(=O)N1CCC(Oc2cccc(C)c2)CC1",
    "UNIT SYMBOL": "%",
    "TEST RESULT": -5.33
  },
  {
    "COMPOUND": "Cc1ccc(NC(=O)c2ccc(CC3CC(=O)NC3=O)cc2)cc1O (centres undefined)",
    "UNIT SYMBOL": "%",
    "TEST RESULT": -2.83
  },
  {
    "COMPOUND": "CCn1ccnc1CNCC(c1ccc(C)s1)N1CCOCC1 (centres undefined)",
    "UNIT SYMBOL": "%",
    "TEST RESULT": -7.92
  },
  {
    "COMPOUND": "CSc1ccc(CNC(=O)NCC(O)c2cccc(F)c2)cc1 (centres undefined)",
    "UNIT SYMBOL": "%",
    "TEST RESULT": -7.86
  },
  {
    "COMPOUND": "Cn1cc(CN2CCc3onc(COc4cccnc4)c3C2)cn1",
    "UNIT SYMBOL": "%",
    "TEST RESULT": 14.8
  },
  {
    "COMPOUND": "CC(NC(=O)NCC(C)(C)O)c1ccc(-c2cncnc2)cc1 (centres undefined)",
    "UNIT SYMBOL": "%",
    "TEST RESULT": 19.1
  },
  {
    "COMPOUND": "COc1ccc(OC2CCN(C(=O)c3cnc(C)s3)CC2)cc1",
    "UNIT SYMBOL": "%",
    "TEST RESULT": -4.93
  },
  {
    "COMPOUND": "CN(Cc1ccco1)C(=O)CN1CCCCC1Cn1cncn1 (centres undefined)",
    "UNIT SYMBOL": "%",
    "TEST RESULT": -8.72
  },
  {
    "COMPOUND": "COC(=O)N1CCN(c2ncnc3nc(C)cc(C)c23)CC1",
    "UNIT SYMBOL": "%",
    "TEST RESULT": -4.12
  },
  {
    "COMPOUND": "CN(C)CCn1ccnc1C1CCCN(c2nccc3ccccc23)C1 (centres undefined)",
    "UNIT SYMBOL": "%",
    "TEST RESULT": 1.12
  },
  {
    "COMPOUND": "COCc1nc(CNC2CCCC(C)(C)C2)no1 (centres undefined)",
    "UNIT SYMBOL": "%",
    "TEST RESULT": -9.03
  },
  {
    "COMPOUND": "Cn1cc(CN2CC[C@H]3OCC[C@@H](C(=O)N4CCCCO4)[C@@H]3C2)cn1",
    "UNIT SYMBOL": "%",
    "TEST RESULT": -15.8
  },
  {
    "COMPOUND": "CN(C)C(=O)N1CC[C@H]2[C@H]1CCN2c1nncs1",
    "UNIT SYMBOL": "%",
    "TEST RESULT": -6.13
  },
  {
    "COMPOUND": "CC(C)(C)c1ncc(C(=O)N2CCN(C(=O)c3ccc[nH]3)CC2)c(O)n1",
    "UNIT SYMBOL": "%",
    "TEST RESULT": -2.76
  },
  {
    "COMPOUND": "O=C(NCC(O)c1ccc(F)c(F)c1)c1ccccc1F (centres undefined)",
    "UNIT SYMBOL": "%",
    "TEST RESULT": -9.96
  },
  {
    "COMPOUND": "CC(C)N1c2sc(-c3ccccc3)nc2CC1C(=O)NCCCO (centres undefined)",
    "UNIT SYMBOL": "%",
    "TEST RESULT": -5.59
  }
]

====

- ASSAY SUMMARY: Human HepG2 cell viability assay in 384 well format
- Type: toxicity, cell-based
- Parameters: dose 125 nL, time 70.5 hour; concentration not given beside the values
- CONDITIONS: HepG2 cells, read-out: Inhibition
The following compounds are shown together with reported cytotoxicity at 70.5 h values.

[
  {
    "COMPOUND": "Cc1cc(CN(C)Cc2cc3c(cc2OC(F)F)OCO3)on1",
    "cytotoxicity at 70.5 h [%]": -6.95
  },
  {
    "COMPOUND": "CCn1nc(C)c(NC(=O)CN(C)C(C)c2nccs2)c1C (stereo unspecified)",
    "cytotoxicity at 70.5 h [%]": -6.95
  },
  {
    "COMPOUND": "Cc1ccc(N2CCN(C(=O)CN3C[C@@H]4CC[C@H]3C4)CC2=O)cc1",
    "cytotoxicity at 70.5 h [%]": 24.1
  },
  {
    "COMPOUND": "Cc1cnn(CCC(=O)NCc2ccc(N(C)C)c(C)c2)c1",
    "cytotoxicity at 70.5 h [%]": -5.29
  },
  {
    "COMPOUND": "COc1cccc(OCC(=O)N2CCC3(CC2)[C@H](O)C[C@@H]3OC)c1",
    "cytotoxicity at 70.5 h [%]": -5.93
  },
  {
    "COMPOUND": "Cc1cn2nc(N(C)C3CCCN(c4cccnn4)C3)sc2n1 (stereo unspecified)",
    "cytotoxicity at 70.5 h [%]": -11.5
  }
]
